measurement.target: T1, RXFP1 receptor (endogenous, on OVCAR5 cells) (UniProt Q9HBX9 1-757, limits assumed)
T1 sequence (looked up): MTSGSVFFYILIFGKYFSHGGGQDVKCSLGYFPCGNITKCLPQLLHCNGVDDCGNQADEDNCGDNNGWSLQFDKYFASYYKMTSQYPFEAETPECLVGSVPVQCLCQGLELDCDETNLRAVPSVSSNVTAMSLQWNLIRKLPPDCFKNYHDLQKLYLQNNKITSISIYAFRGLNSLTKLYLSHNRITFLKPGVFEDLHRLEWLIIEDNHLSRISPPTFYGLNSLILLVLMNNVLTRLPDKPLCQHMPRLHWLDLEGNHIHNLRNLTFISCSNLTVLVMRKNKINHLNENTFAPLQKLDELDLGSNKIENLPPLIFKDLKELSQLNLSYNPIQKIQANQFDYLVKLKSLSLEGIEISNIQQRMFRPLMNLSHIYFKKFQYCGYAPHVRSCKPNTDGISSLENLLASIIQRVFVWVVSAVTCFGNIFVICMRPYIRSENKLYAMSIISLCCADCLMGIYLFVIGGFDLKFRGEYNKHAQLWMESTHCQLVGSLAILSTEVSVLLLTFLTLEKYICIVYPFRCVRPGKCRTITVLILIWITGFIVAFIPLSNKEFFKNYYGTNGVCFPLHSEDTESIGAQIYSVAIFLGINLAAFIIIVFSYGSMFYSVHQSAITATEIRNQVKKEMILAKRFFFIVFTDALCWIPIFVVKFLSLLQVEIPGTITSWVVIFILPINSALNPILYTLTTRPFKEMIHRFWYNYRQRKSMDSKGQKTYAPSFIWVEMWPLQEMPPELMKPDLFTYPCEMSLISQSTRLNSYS
protocol.details: cell-based or functional assay
Starred links: 1 amine or outer side, 2 acyl side, 3 side chain; linkers in the order of their positions; H or OH if unused. Non-standard residues stand in square brackets, D forms with d. Groups on a side chain read outwards from the residue. *: point of attachment. TTDS = 4-[3-[2-[2-(3-aminopropoxy)ethoxy]ethoxy]propylamino]-4-oxo-butanoyl; γGlu = O=C(O)[C@H](CCC(=O)[*:2])N[*:1]; Stearoyl = CCCCCCCCCCCCCCCCCC(=O)*; Palmitoyl = CCCCCCCCCCCCCCCC(=O)*; Cit = NC(=O)NCCC[C@H](N)C(=O)O; αMeK = C[C@](N)(CCCCN)C(=O)O; Aib = CC(C)(N)C(=O)O
quantity.name: EC50 (nM), OVCAR 5 cells (cAMP)

>  <binder>
Ac-LEGREKVRK(Ac)QI[Aib][Aib]EGK([TTDS-TTDS-TTDS-γGlu-γGlu-γGlu-Palmitoyl])STWS[Aib]RKK(Ac)-NH2 [peptide of SEQ ID NO: 65]

>  <EC50 (nM), OVCAR 5 cells (cAMP)>
1.19

$$$$

1 = Ac-LEGREKVRAK(Ac)I[Aib][Aib]EGK([TTDS-TTDS-TTDS-γGlu-γGlu-γGlu-Palmitoyl])STF[Aib]KRAK(Ac)-NH2 [peptide of SEQ ID NO: 15]
2 = Ac-LEGREKVRA[Cit]I[Aib][Aib]EGK([TTDS-TTDS-TTDS-γGlu-γGlu-γGlu-Palmitoyl])STFS[αMeK]RAK(Ac)-NH2 [peptide of SEQ ID NO: 12]
3 = Ac-LEGREKVRAK(Ac)I[Aib][Aib]EGK([TTDS-TTDS-TTDS-γGlu-γGlu-γGlu-Stearoyl])STFS[αMeK]RAK(Ac)-NH2 [peptide of SEQ ID NO: 7]
Task: Place the items in sequence of falling EC50 (nM), OVCAR 5 cells (cAMP). Please write the labels in the order that was asked for.
Result: 1, 2, 3
